# Test system: Septoria nodorum
# METHOD NOTES: Test F: wheat glume blotch on wheat seedlings, sprayed the day before inoculation, visual disease rating
# Assay type: in vivo
# MEASUREMENT SETUP: 200 ppm; 100 = 100% disease control, 0 = no control
# Source text: General protocol for preparing test suspensions for Tests A-J: The test compounds were first dissolved in acetone in an amount equal to 3% of the final volume and then suspended at the desired concentration (in ppm) in acetone and purified water (50/50 mix) containing 250 ppm of the surfactant Trem® 014 (polyhydric alcohol esters). […]
READOUT: Test F disease control rating (%)
Express the result in % but write the number alone.

These solved cases illustrate the format of a correct answer.
>>> endpoint_result("Cc1nc(Cl)c(-c2c(F)cccc2F)n1-c1cnc2ccccc2c1")
100
>>> endpoint_result("COc1cc(F)c(-c2c(Cl)nc(C)n2-c2ccc(Cl)cc2)c(Cl)c1")
100
>>> endpoint_result("Fc1cc(-n2c(Br)nc(Cl)c2-c2c(F)cccc2F)ccc1Cl")
60

Task: API: value(readout=Test F disease control rating, system=Septoria nodorum) for record `Fc1cccc(F)c1-c1c(Cl)nc(Br)n1-c1cccc(Cl)c1`
Result: 0

Task: API: value(readout=Test F disease control rating, system=Septoria nodorum) for record `COc1ccc(F)c(-c2c(Cl)nc(Cl)n2-c2cccc(F)c2)c1F`
Result: 100

* * *

# System: Septoria tritici
# METHOD NOTES: Test G: wheat leaf blotch on wheat seedlings, sprayed the day before inoculation, visual disease rating
# Type: in vivo
# MEASUREMENT SETUP: 200 ppm; 100 = 100% disease control, 0 = no control relative to controls
READOUT: Test G disease control rating (%)
Express the result in % but write the number alone.

These solved cases illustrate the format of a correct answer.
>>> endpoint_result("Cc1nc(Cl)c(-c2cc(F)ccc2F)n1-c1ccc(Cl)cc1")
99
>>> endpoint_result("Cc1ncn(-c2ccc(Cl)c(F)c2)c1-c1ccnc(Br)c1")
27
>>> endpoint_result("Cc1nc(Cl)n(-c2ccc(Cl)c(F)c2)c1-c1ccnc(F)c1")
100

Task: Param item = `COc1ccc(F)c(-c2c(Cl)nc(Cl)n2-c2ccc(C#N)cc2)c1F` ; retrieve measured Test G disease control rating.
Result: 96

Task: Param item = `COc1cc(OC)cc(-n2c(C)nc(Cl)c2Cc2c(F)cc(F)cc2F)c1` ; retrieve measured Test G disease control rating.
Result: 2

Task: Param item = `Cc1nn(C)c(-c2c(F)cccc2Cl)c1-c1ccc(Cl)c(F)c1` ; retrieve measured Test G disease control rating.
Result: 33

Task: Param item = `Cc1ncc(Cc2c(F)cc(F)cc2F)n1-c1cc(Cl)cc(Cl)c1` ; retrieve measured Test G disease control rating.
Result: 7

Task: Param item = `COc1ccc(-c2c(Cl)nc(Cl)n2-c2ccc(Cl)cc2Cl)cc1` ; retrieve measured Test G disease control rating.
Result: 99

Task: Param item = `Cn1c(-c2c(Br)nc(Br)n2-c2ccc(Cl)cc2)nc(Br)c1Br` ; retrieve measured Test G disease control rating.
Result: 91

* * *

# Tested on: Puccinia recondita f. sp. tritici
# METHOD NOTES: Test I: wheat leaf rust on wheat seedlings, sprayed the day before inoculation, visual disease rating
# Format: in vivo
# MEASUREMENT SETUP: 200 ppm; 100 = 100% disease control, 0 = no control
# Test I disease control rating listing for each entry below
Express the result in % but write the number alone.

These solved cases illustrate the format of a correct answer.
>>> endpoint_result("Fc1cccc(F)c1-c1c(Cl)nc(Cl)n1-c1cccc(Cl)c1")
97
>>> endpoint_result("Cc1nc(Cl)c(-c2c(F)cccc2F)n1-c1cccc(Cl)c1")
100
>>> endpoint_result("Cc1ccc(-n2c(Br)nc(Cl)c2-c2c(F)cccc2Cl)cc1")
100
>>> endpoint_result("Cc1nc(Cl)c(-c2c(F)cccc2Cl)n1-c1ccc(Cl)c(F)c1")
99

Task: Param item = `Cc1ncn(-c2ccc(Cl)c(F)c2)c1-c1c(Cl)cncc1Cl` ; retrieve measured Test I disease control rating.
Result: 86

Task: Param item = `Fc1ccc(F)c(-c2c(Cl)ncn2Cc2ccc(Cl)cc2)c1F` ; retrieve measured Test I disease control rating.
Result: 99

* * *

# Test system: Septoria tritici
# METHOD NOTES: Test G: wheat leaf blotch on wheat seedlings, sprayed the day before inoculation, visual disease rating
# Type: in vivo
# MEASUREMENT SETUP: 200 ppm; 100 = 100% disease control, 0 = no control relative to controls
READOUT: Test G disease control rating (%)
Express the result in % but write the number alone.

These solved cases illustrate the format of a correct answer.
>>> endpoint_result("COc1cc(F)c(-c2c(Cl)nc(Cl)n2-c2ccc(C)c(I)c2)c(F)c1")
95
>>> endpoint_result("COc1cc(F)c(-c2c(Cl)nc(Cl)n2-c2cccnc2C)c(F)c1")
98
>>> endpoint_result("CCOc1ccc(F)c(-c2c(Cl)ncn2-c2ccc(Cl)cc2)c1F")
100
>>> endpoint_result("COc1cc(F)c(-c2c(Cl)nc(Br)n2-c2ccc(F)cc2)c(F)c1")
100

Continue with the compound presented below.
Task: Param item = `COc1cc(F)c(-c2c(Cl)nc(Br)n2-c2ccc(OC)nc2)c(F)c1` ; retrieve measured Test G disease control rating.
Result: 99

* * *

# Test system: Puccinia recondita f. sp. tritici
# METHOD NOTES: Test H: wheat leaf rust, test suspension sprayed after inoculation of wheat seedlings, visual disease rating
# Assay type: in vivo
# MEASUREMENT SETUP: 200 ppm; 100 = 100% disease control, 0 = no control relative to controls
READOUT: Test H disease control rating (%)
Express the result in % but write the number alone.

>>> endpoint_result("Cc1nn(C)c(Cc2ccc(Cl)cc2)c1-c1ccc(F)cc1Cl")
17
>>> endpoint_result("COc1cc(F)c(-c2c(Cl)nc(SC)n2-c2ccc(C)cc2)c(F)c1")
97
>>> endpoint_result("Cc1ccc(-n2c(C)nc(Cl)c2-c2c(F)cc(OC(F)F)cc2F)cc1")
40
>>> endpoint_result("COc1ccc(-n2c(Cl)nc(C)c2-c2c(F)cccc2F)cn1")
99

Continue with the molecule presented below.
Task: API: value(readout=Test H disease control rating, system=Puccinia recondita f. sp. tritici) for record `COc1cc(F)c(-c2c(O)nc(C)n2-c2ccc(Cl)cc2)c(F)c1`
Result: 0

* * *

# Test F disease control rating listing for each entry below
# Tested on: Septoria nodorum
# METHOD NOTES: Test F: wheat glume blotch on wheat seedlings, sprayed the day before inoculation, visual disease rating
# Assay type: in vivo
# MEASUREMENT SETUP: 200 ppm; 100 = 100% disease control, 0 = no control
Express the result in % but write the number alone.

These solved cases illustrate the format of a correct answer.
>>> endpoint_result("COc1ccc(Cn2c(Cl)nc(Cl)c2-c2c(F)cccc2F)cc1Cl [compound 213]")
0
>>> endpoint_result("Cc1ccc(-n2cnc(Cl)c2-c2c(F)cccc2F)cc1F [compound 161]")
0
>>> endpoint_result("COc1cc(F)c(-c2c(Cl)nc(Cl)n2-c2cccc(F)c2)c(F)c1 [compound 257]")
99
>>> endpoint_result("Fc1ccc(-n2cnc(Cl)c2-c2c(F)cccc2F)cc1F [compound 160]")
0
>>> endpoint_result("Cc1ccc(-n2c(C)nc(Cl)c2-c2ccc(F)cc2Cl)cc1 [compound 188]")
0
>>> endpoint_result("COc1cc(F)c(-c2c(Cl)ncn2Cc2ccc(C)cc2)c(F)c1 [compound 274]")
51

Task: Param item = Cc1ccc(-n2c(Cl)nc(Cl)c2-c2c(F)ccc(F)c2Cl)cc1 [compound 198] ; retrieve measured Test F disease control rating.
Result: 0

Task: Param item = Fc1ccc(-n2c(Br)nc(Cl)c2-c2c(F)ccc(F)c2Cl)cc1 [compound 195] ; retrieve measured Test F disease control rating.
Result: 64

Task: Param item = COc1cc(F)c(-c2c(Cl)nc(Cl)n2-c2ccc(Cl)cc2)c(F)c1 [compound 239] ; retrieve measured Test F disease control rating.
Result: 100

* * *

# Test system: Puccinia recondita f. sp. tritici
# METHOD NOTES: Test H: wheat leaf rust, test suspension sprayed after inoculation of wheat seedlings, visual disease rating
# Type: in vivo
# MEASUREMENT SETUP: 200 ppm; 100 = 100% disease control, 0 = no control relative to controls
READOUT: Test H disease control rating (%)
Express the result in % but write the number alone.

These solved cases illustrate the format of a correct answer.
>>> endpoint_result("COc1cc(F)c(-c2c(Cl)nc(Br)n2-c2ccc(OC(F)F)cc2)c(F)c1")
0
>>> endpoint_result("COc1ccc(F)c(-c2c(Cl)ncn2-c2ccc(C)c(F)c2)c1F")
0
>>> endpoint_result("COc1cc(F)c(-c2c(Cl)nc(C)n2Cc2ccc(C)nc2)c(F)c1")
17
>>> endpoint_result("Cc1nc(Cl)n(-c2ccc(Cl)c(F)c2)c1-c1scnc1Cl")
0

Task: Param item = `Cc1nc(Cl)c(-c2c(F)cc(F)cc2F)n1-c1cccc(OC(F)(F)F)c1` ; retrieve measured Test H disease control rating.
Result: 0

Task: Param item = `COc1cc(F)c(-c2c(Cl)nc(Cl)n2-c2cccnc2C)c(F)c1` ; retrieve measured Test H disease control rating.
Result: 100

Task: Param item = `Fc1ccc(-n2cnc(Br)c2-c2c(F)cc(F)cc2F)cc1` ; retrieve measured Test H disease control rating.
Result: 0
